These data points were gathered from PubChem BioAssay AID1159580.

Recorded normalized growth, one value per entry.
assay_details: chemical genetic growth profiling, strain panel (AID 1159580);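 further: tested at 20 µM; growth read once vehicle control cultures reached saturation at 30 °C; 1 = growth at the plate median or of vehicle wells; lower values mean less growth of the strain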
settings: S. cerevisiae deletion strains, growth OD, locus YDL192W, strain arf1, active compounds read low
About 2,000 (36%) of roughly 5,500 compounds were called active. Inconclusive results (about 18%) are left out. The list shows a part of the results.
I only need the number, thanks.

Which normalized growth value is on record for COc1cc2c(cc1OC)C(C)NCC2 (stereo not given) ?
0.98

More entries:
Which normalized growth value is on record for CNC(=O)Oc1ccccc1OC(C)C ?
0.989

Which normalized growth value is on record for O=c1c(O)c(-c2ccccc2)oc2ccc3occc3c12 ?
0.731

Which normalized growth value is on record for N[C@@H](C(=O)N[C@@H]1C(=O)N2C(C(=O)O)=C(Cl)CS[C@H]12)c1ccccc1 ?
1.02

Which normalized growth value is on record for CC(=O)OCC1=C(C(=O)O)N2C(=O)[C@@H](NC(=O)CSc3ccncc3)[C@H]2SC1 ?
0.984

---

assay_details: chemical genetic growth profiling, strain panel (AID 1159580);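 further: tested at 20 µM; growth read once vehicle control cultures reached saturation at 30 °C; 1 = growth at the plate median or of vehicle wells; lower values mean less growth of the strain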
settings: S. cerevisiae deletion strains, growth OD, locus YNL298W, strain CLA4 (second series), active compounds read low
Hit rate of the full screen: of about 5,500 compounds, about 2,000 (36%) were called active. Not shown: some 18% with an inconclusive outcome. The list shows a part of the results.
Lab note: anything with normalized growth below 1 is marked criterion met; values at 1 or higher are marked criterion not met.

# check: normalized growth < 1 for O=C(Cc1ccccc1)NC1CCN(S(=O)(=O)c2ccc(Cl)cc2)CC1
criterion not met

# input for lookup
# check: normalized growth < 1 for Cc1ccc(S(=O)(=O)N2CCN(CCOc3ccccc3)CC2)cc1
criterion met

---

assay_details: chemical genetic growth profiling, strain panel (AID 1159580);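 further: tested at 20 µM; growth read once vehicle control cultures reached saturation at 30 °C; 1 = growth at the plate median or of vehicle wells; lower values mean less growth of the strain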
settings: S. cerevisiae strains, growth OD, strain wild type, active compounds read low
Out of some 5,500 compounds screened, about 2,000 (36%) were called active. About 18% were inconclusive and are not listed. This is one part of the list.
Recorded normalized growth, one value per entry.
I only need the number, thanks.

# count of solved cases: 5
Which normalized growth value is on record for CNC(=O)Oc1cccc2c1OC(C)(C)C2 ?
1.01

Which normalized growth value is on record for O=C1c2ccccc2C(=O)c2ccccc21 ?
0.995

Which normalized growth value is on record for C=C[C@H]1CN2CC[C@H]1C[C@H]2[C@H](O)c1ccnc2ccccc12 ?
1

Which normalized growth value is on record for CC(C)C1CCC(C(=O)N[C@@H](Cc2ccccc2)C(=O)O)CC1 (stereo partly specified) ?
0.986

Which normalized growth value is on record for CN1CCN(C2=Nc3cc(Cl)ccc3Nc3ccccc32)CC1 ?
1.02

Here's the next entry for you.
Which normalized growth value is on record for Cc1c(C)c(C)c(S(=O)(=O)Nc2ccccc2N)c(C)c1C ?
0.975

---

assay_details: chemical genetic growth profiling, strain panel (AID 1159580);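 further: tested at 20 µM; growth read once vehicle control cultures reached saturation at 30 °C; 1 = growth at the plate median or of vehicle wells; lower values mean less growth of the strain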
settings: S. cerevisiae deletion strains, growth OD, locus YNL322C, strain KRE1, active compounds read low
Out of some 5,500 compounds screened, about 2,000 (36%) were called active. Not shown: some 18% with an inconclusive outcome. The list shows a part of the results.
Recorded normalized growth, one value per entry.
I only need the number, thanks.

# count of solved cases: 5
Which normalized growth value is on record for CN1CCN(C2=Nc3cc(Cl)ccc3Nc3ccccc32)CC1 ?
1.01

Which normalized growth value is on record for Cc1cccc(NC(=O)c2ccccc2)c1 ?
0.98

Which normalized growth value is on record for O=[N+]([O-])c1ccc(NCCCCCO)nc1 ?
0.992

Which normalized growth value is on record for CCOC(=O)CC(=O)CSc1nnc(N)s1 ?
1.02

Which normalized growth value is on record for Nc1c(Cl)cc(C(=O)Nc2cc(Cl)cc(Cl)c2)cc1Cl ?
1

More entries:
Which normalized growth value is on record for CC(NC(C)(C)C)C(=O)c1cccc(Cl)c1 (centres undefined) ?
1.01

Which normalized growth value is on record for NC(C(=O)N[C@@H]1C(=O)N2C(C(=O)O)=C(Cl)CS[C@H]12)c1ccccc1 (some centres undefined) ?
1

Which normalized growth value is on record for COc1ccccc1C1CCN(c2ncnc3scc(-c4ccccc4)c23)CC1 ?
0.992

Which normalized growth value is on record for COC(=O)c1cc(OC)c(OC)cc1NC(=O)Nc1cc(Cl)cc(Cl)c1 ?
1.02

Which normalized growth value is on record for Cc1ccc2c(c1)C(N1CCN(C)CC1)=Nc1cccnc1N2 ?
0.988

Which normalized growth value is on record for O=C(NNC(=O)c1ccc[nH]1)Nc1cc(Cl)cc(Cl)c1 ?
0.996

Which normalized growth value is on record for ClC1C(Cl)C(Cl)C(Cl)C(Cl)C1Cl (centres undefined) ?
0.941

Which normalized growth value is on record for O=C(O)C1c2ccccc2C(=O)N(Cc2ccc3c(c2)OCO3)C1c1cccnc1 (centres undefined) ?
1.02

Which normalized growth value is on record for COC(=O)c1cccc([N+](=O)[O-])c1-c1c(C(=O)OC)cccc1[N+](=O)[O-] ?
1

Which normalized growth value is on record for FC(F)(F)c1cc(-c2ccc(Cl)cc2)nc2cc(C3CC3)nn12 ?
1.02

Which normalized growth value is on record for Nc1nc(Sc2ccc(C(F)(F)F)cc2[N+](=O)[O-])n[nH]1 ?
1

Which normalized growth value is on record for COc1ccc(CCNC(=O)c2ccccc2Cl)cc1OC ?
1.01

Which normalized growth value is on record for Clc1cc(Cl)cc(Br)c1 ?
1.02
